These data points were gathered from patent US20220024975A1.

Target Under Test: αvβ6 integrin (human, UniProt P06756 31-1048; P18564 22-788)
Construct: whole, on cells; target is the endogenous integrin on αvβ6 positive-control cell lines; also called Integrin alpha-v beta-6
Sequence (P06756 31-1048, chain 1 of 2): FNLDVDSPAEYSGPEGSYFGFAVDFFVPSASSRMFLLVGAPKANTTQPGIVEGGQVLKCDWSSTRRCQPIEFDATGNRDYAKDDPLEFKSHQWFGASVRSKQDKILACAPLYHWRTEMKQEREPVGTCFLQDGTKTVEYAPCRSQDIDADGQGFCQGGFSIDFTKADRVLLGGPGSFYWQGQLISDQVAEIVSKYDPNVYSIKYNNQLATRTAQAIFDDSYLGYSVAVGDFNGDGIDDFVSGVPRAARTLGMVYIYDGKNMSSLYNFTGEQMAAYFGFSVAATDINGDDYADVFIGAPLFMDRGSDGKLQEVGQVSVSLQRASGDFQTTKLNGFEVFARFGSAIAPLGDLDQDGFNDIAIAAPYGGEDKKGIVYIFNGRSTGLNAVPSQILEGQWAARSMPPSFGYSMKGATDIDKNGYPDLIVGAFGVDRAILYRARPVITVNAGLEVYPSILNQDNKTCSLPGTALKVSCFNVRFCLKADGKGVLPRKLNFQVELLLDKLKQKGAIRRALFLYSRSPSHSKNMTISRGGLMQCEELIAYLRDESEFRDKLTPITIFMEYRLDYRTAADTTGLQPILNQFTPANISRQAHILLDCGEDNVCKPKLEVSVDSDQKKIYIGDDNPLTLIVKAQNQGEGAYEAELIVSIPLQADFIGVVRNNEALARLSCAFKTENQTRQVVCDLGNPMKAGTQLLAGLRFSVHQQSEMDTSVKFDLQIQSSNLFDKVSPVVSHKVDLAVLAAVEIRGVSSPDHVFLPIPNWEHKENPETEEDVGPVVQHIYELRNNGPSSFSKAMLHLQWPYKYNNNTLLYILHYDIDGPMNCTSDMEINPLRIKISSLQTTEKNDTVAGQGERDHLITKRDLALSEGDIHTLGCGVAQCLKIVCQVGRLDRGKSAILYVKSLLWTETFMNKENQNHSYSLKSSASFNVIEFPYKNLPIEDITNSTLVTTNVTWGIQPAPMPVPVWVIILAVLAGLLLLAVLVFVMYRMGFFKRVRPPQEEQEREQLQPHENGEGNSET
Sequence (P18564 22-788, chain 2 of 2): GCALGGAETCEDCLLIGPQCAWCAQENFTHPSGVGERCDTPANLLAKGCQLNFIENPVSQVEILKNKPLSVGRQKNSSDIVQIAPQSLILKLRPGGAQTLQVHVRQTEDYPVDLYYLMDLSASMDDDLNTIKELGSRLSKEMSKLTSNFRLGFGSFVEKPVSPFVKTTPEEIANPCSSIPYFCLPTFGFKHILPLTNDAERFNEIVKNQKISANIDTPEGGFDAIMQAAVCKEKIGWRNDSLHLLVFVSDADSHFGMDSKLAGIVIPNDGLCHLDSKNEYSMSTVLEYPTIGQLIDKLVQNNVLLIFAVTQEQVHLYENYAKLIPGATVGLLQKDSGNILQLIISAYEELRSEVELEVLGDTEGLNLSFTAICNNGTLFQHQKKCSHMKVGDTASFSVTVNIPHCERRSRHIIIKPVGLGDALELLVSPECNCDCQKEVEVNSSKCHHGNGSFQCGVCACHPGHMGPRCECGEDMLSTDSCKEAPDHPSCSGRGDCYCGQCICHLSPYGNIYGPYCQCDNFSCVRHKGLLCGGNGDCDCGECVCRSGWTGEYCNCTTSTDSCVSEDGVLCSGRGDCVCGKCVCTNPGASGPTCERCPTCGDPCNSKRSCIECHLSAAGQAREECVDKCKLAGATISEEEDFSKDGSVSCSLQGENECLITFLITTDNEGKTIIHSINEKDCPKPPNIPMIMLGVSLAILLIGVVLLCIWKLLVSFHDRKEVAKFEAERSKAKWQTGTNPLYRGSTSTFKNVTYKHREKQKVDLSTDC
Test Name: flow cytometry, Cy5-polymer conjugate 5 µg/ml, H2009 cells
Non-standard residues stand in square brackets, D forms with d. No end group written: not given here. Cit = NC(=O)NCCC[C@H](N)C(=O)O; Aib = CC(C)(N)C(=O)O
Measurement Name: MFI (specific MFI ratio, sample/no-ligand)
Give bare numbers.

Reference set (8 entries):
// lookup MFI (specific MFI ratio, sample/no-ligand) for `Ac-RGDLAFL[Cit][Aib]`
2

Quick one: CH3O(CH2CH2O)3CH2CH2CO-RGDLAAbuLCitAib (peptide)
3.7

Quick one: `Ac-RGDLATL[Cit]QL`
3.94

Quick one: `Ac-RGDLAQL[Cit][Aib]`
3.6

Quick one: CH3(CH2)4-RGDLAAbuLCitAib (peptide)
4.1

Quick one: CH3O(CH2CH2O)1CH2CH2CO-RGDLAAbuLCitAib (peptide)
3.8

Quick one: `Ac-[Cit]GDLATL[Cit]QL`
0.99

Quick one: CH3(CH2)2CO-RGDLAAbuLCitAib (peptide)
4.3

Please report MFI (specific MFI ratio, sample/no-ligand) for every entry that follows.
1. Ac-RGDLAPL[Cit][Aib]
2. CH3(CH2)2-RGDLAAbuLCitAib (peptide)
3. CH3CH2-RGDLAAbuLCitAib (peptide)
4. CH3(CH2)3-RGDLAAbuLCitAib (peptide)

1. 2.8
2. 3.9
3. 4.4
4. 4.7

// lookup MFI (specific MFI ratio, sample/no-ligand) for CH3O(CH2CH2O)5CH2CH2CO-RGDLAAbuLCitAib (peptide)
1.6

---

Target Under Test: αvβ6 integrin (human, UniProt P06756 31-1048; P18564 22-788)
Construct: whole, on cells; target is the endogenous integrin on αvβ6 positive-control cell lines; also called Integrin alpha-v beta-6
Test Name: flow cytometry, Cy5-polymer conjugate 5 µg/ml, H2009 cells
Non-standard residues stand in square brackets, D forms with d. No end group written: not given here. Cit = NC(=O)NCCC[C@H](N)C(=O)O; Aib = CC(C)(N)C(=O)O
Would you mind telling me the reported MFI (specific MFI ratio, sample/no-ligand) of each entry?
Numbers only.

// lookup MFI (specific MFI ratio, sample/no-ligand) for `Ac-RGDLAGL[Cit][Aib]`
3.8

Quick one: `Ac-RGDLAKL[Cit][Aib]`
3.6

Quick one: CH3O(CH2CH2O)2CH2CH2CO-RGDLAAbuLCitAib (peptide)
3.6

Quick one: Ac-RGDLAAbuNMeLCitAib (peptide)
1.3

Quick one: CH3(CH2)1CO-RGDLAAbuLCitAib (peptide)
4.2

Please report MFI (specific MFI ratio, sample/no-ligand) for every entry that follows.
1. Ac-RGDLAEL[Cit][Aib]
2. Ac-RGDLβ3-hATLRQL (peptide)
3. CH3(CH2)4CO-RGDLAAbuLCitAib (peptide)
4. CH3(CH2)3CO-RGDLAAbuLCitAib (peptide)

[2.4, 4.5, 3.9, 4.1]
